Molecular target: T1, HA-GCN4 hAPRIL (amino acid residues 105-250) (human, UniProt O75888 105-250)
T1 construct: Bought (R&D Systems); also called HA-tagged GCN4 human APRIL; HA-GCN4-huAPRIL; not shown: N-terminal HA tag; GCN4 isoleucine zipper oligomerization domain
T1 sequence: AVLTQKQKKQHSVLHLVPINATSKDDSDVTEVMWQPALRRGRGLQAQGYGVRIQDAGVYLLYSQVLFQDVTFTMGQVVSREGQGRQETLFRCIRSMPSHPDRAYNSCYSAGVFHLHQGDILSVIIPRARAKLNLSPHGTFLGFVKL
Experiment: blocking ELISA; blocked: human APRIL binding to BCMA-Fc
We use 0.7 as the dividing line for Relative Activity (normalised to 2419): on or above the line is YES, below is NO.

Solved cases (3 shown):
INSERT INTO measurements (binder, label) VALUES
  ('2419-1305 (antibody, V domains shown) VH: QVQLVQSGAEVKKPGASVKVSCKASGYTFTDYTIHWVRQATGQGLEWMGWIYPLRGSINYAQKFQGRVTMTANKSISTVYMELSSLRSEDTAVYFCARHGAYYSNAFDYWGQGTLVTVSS VL: EIVMTQSPATLSVSPGERATLSCRASESVDNDGIRFLHWYQQKPGQAPRLLIYRASNRETGIPARFSGSGSGTEFTLTISSLQSEDFAVYYCQQSNKDPYTFGGGTKVEIK', 'NO'),
  ('2419-0406 (antibody, V domains shown) VH: QVQLVQSGAEVKKPGSSVKVSCKASGYTFTDYTIHWVRQAPGQGLEWMGWIYPLRGSINYAEKFKGRVTLTADKSTSTVYMELSSLRSEDTAVYFCARHGAYYSNAFDYWGQGTLVTVSS VL: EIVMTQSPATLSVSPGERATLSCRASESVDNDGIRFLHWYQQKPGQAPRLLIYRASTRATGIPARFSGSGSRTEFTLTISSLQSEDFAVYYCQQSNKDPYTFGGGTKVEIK', 'YES'),
  ('monoclonal antibody 4540 (antibody, V domains shown, mouse-derived) VH: QVQLQQSGPELVKPGASVKISCKASGYTFADYYINWVKQRPGQGLEWIGWIFPGSGSTYYNEKFKGKATLTVDKSSSTAYMLLSSLTSEDSAVYFCARGDSGRAMDYWGQGTSVTVSS VL: DIQMTQSPSSLSASLGGKVTITCKASQDINKYIAWYQHKPGKGPRLLIHYTSTLQSGIPSRFSGSGSGRDYSFSISNLEPEDNATYYCLQYDNLLTFGAGTKLELK', 'YES');

// inclusive: Relative Activity (normalised to 2419) at least 0.7? input: 2419-0806 (antibody, V domains shown) VH: EVQLVQSGAEVKKPGESLKISCKASGYTFTDYTIHWVRQMPGKGLEWMGWIYPLRGSINYSPSFQGQVTISADKSISTVYLQWSSLKASDTAMYFCARHGAYYSNAFDYWGQGTLVTVSS VL: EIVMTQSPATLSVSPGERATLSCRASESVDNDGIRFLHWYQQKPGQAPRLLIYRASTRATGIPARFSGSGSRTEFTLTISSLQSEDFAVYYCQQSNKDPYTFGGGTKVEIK
YES

src = patent US20170145086A1
